Attribution: the domain aggregation screens of Martell et al. (2025)

Recorded soluble fraction (log2) values for a group of sequences are listed next.
# assay explanation: soluble fraction after stress (log2 fold change); higher = more stays soluble; pooled small domains, quantitative proteomics;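 note: 20 min heating vs room temperature control held 20 min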
# experimental conditions: stress: 75 degC

>  <record sequence>
HMEAFAEAVASMLRKLQPEFAIDLVGPRELLVNGRRLDLENLYRMVNHEPVRGQEIVEHYLDQLFAG

>  <soluble fraction (log2)>
-1.17

$$$$
>  <record sequence>
HMEHTPHGVALLRTLMDQYGLKAADLANELGSKSNVSNILNGRRALTVSHIKMLAERFNLPADAFI

>  <soluble fraction (log2)>
-1.33

$$$$
>  <record sequence>
HMTRQEFIRKLQEALNGKLDAATIQDHLKFYDDYIIEEMRKGKSEQEVLELLGDPWAIAKTIVDAS

>  <soluble fraction (log2)>
0.669

$$$$
>  <record sequence>
HMRDKTMLGNVIRTRRKKMNLTLEELSKQVGITSGGLSQIERGLVDPSLSVLRRISRALNLPMNVMFSE

>  <soluble fraction (log2)>
-1.32

$$$$
>  <record sequence>
HMARTGSEELVGALATVREPLAPWGQVFVQGALWRARSADGGPVDAGQQVVVRAVEGLTLVVEPRD

>  <soluble fraction (log2)>
-0.143

$$$$
>  <record sequence>
HMPQLVGDVDGDGRVSVTDGEWIRASYGALPWYAGWRAAADLDGSRKIDVVDLELLRTKMGN

>  <soluble fraction (log2)>
-0.334

$$$$
>  <record sequence>
HMSDGIPDLRNLNFLSPQEGDYLNESDRVFGVTINGDGQAYPLRIVNAHEMVNDTLGGEPISLM

>  <soluble fraction (log2)>
0.124

$$$$
>  <record sequence>
HMKKPAERRKELVDAAAHLFAEKGYENTSVRDILDAVGGAPGMFYYYFKSKQDIYVAVMEDF

>  <soluble fraction (log2)>
-3.71

$$$$
>  <record sequence>
HMSDDLIILGYSMLNNALKAFHIDPDSIKKKHWDKLAQDYHLKNKNQILTDIALGKRVNIMVAHQLTTIMD

>  <soluble fraction (log2)>
-0.738

$$$$
>  <record sequence>
HMTAEASELRERIRAAMATLPPAQQRVIELAYFEGLTQREIAALLNEPLGTIKTRMRLGMRKLKDVL

>  <soluble fraction (log2)>
-2.35

$$$$
>  <record sequence>
HMDIYLDEVNRKILHLLSQGIKTRSLREYINLSMSAIEKRKKHMKELFLVEDGKDETLLNEARNKGF

>  <soluble fraction (log2)>
-1.88

$$$$
>  <record sequence>
HMNVSVSITKELQVYINDERISSSALESTLKSKLAGIENPTIILRAEEGVPIEKAVNVMDIANRNRYKIVL

>  <soluble fraction (log2)>
-1.32

$$$$
>  <record sequence>
HMSGEPKNERQIEVPDVTKKSIREANNILTSEGLRLRIEGTGLAVSQKPAAGTMVEPDTIITVTFQAP

>  <soluble fraction (log2)>
0.441

$$$$
>  <record sequence>
HMNISLGALVTITDQKGRSHTVTLESGKQFFTNHGSINHDEIIKAGEGGVVASSSGMLYTIFTP

>  <soluble fraction (log2)>
-0.924

$$$$
>  <record sequence>
HMEKELVSDFASRISTARSSKGWNHAELGKRMAETVNVIKSAESGKPPTDSVVKKLERVLGITLMEV

>  <soluble fraction (log2)>
-0.0517

$$$$
>  <record sequence>
HMLTTADLMMVHANSNKAIDYIVTDDNTKLTVDEPVTAKWITTADSIYRAVAYYNKVGDGKAQIVSVGN

>  <soluble fraction (log2)>
-0.0103

$$$$
>  <record sequence>
HMLSTNDYNENKNKLIKDFEIKFIIKHLKLNKGNVAATARSINFHPVSLRQKIAKLGIDVDEVMAG

>  <soluble fraction (log2)>
-2.59

$$$$
